Biological target: purified recombinant Plasmodium falciparum methylerythritol cytidyltransferase (PfIspD) enzyme (Plasmodium falciparum)
Sequence (Q8I273 entry or part of it): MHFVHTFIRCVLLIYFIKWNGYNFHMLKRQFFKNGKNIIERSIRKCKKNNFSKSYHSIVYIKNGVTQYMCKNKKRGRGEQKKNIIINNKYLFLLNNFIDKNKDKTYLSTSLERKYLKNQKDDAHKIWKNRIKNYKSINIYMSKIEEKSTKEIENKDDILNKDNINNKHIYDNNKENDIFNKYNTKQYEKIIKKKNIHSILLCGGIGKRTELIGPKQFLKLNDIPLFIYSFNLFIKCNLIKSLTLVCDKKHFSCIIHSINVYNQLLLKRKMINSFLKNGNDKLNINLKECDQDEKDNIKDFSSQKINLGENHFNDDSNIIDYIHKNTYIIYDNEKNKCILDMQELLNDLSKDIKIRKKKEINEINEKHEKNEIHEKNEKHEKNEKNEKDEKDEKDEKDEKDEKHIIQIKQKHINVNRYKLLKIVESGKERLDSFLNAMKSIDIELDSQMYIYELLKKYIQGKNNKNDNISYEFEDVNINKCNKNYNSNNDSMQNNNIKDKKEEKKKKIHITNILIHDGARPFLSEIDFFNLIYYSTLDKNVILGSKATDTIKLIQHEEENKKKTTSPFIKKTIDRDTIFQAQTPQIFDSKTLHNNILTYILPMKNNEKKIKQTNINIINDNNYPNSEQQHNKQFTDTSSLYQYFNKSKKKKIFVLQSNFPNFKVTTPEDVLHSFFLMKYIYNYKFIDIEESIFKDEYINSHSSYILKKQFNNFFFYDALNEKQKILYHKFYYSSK
Experiment: biochemical
Details: nonlinear regression
READOUT NAME: IC50 (nM)

Sample answers from the record:
INSERT INTO measurements (compound, measurement_units, data_value) VALUES
  ('O=c1c2ccccc2sn1-c1cccc(-c2ccc(Cl)cc2)c1', 'nM', 160),
  ('COc1ccc(Cn2sc3ccccc3c2=O)cc1', 'nM', 1340),
  ('O=c1c2ccccc2sn1-c1cc(S(=O)(=O)N2CCCOCC2)ccc1O', 'nM', 1950),
  ('COC(=O)c1cccc(-n2sc3ccccc3c2=O)c1', 'nM', 150),
  ('COc1ccc(S(=O)(=O)N2CCCOCC2)cc1-n1sc2ccccc2c1=O', 'nM', 542);

(I) O=c1c2ccccc2sn1-c1ccccn1
(II) O=c1c2ccccc2sn1Cc1ccc(Cl)cc1
(III) O=c1[nH]sc2ncccc12 [Compound 50, Isothiazolo[5,4-b]pyridin-3(2H)-one]
(IV) O=c1c2ccccc2sn1-c1cc(S(=O)(=O)N2CCCCC2)ccc1O
(V) O=c1c2ccccc2sn1-c1cccc(-c2ccc(C(F)(F)F)cc2)c1
Problem: List the 5 entries from lowest IC50 to highest IC50 value. Answer with the labels in sequence, matching the requested order.
Result: I, V, II, IV, III
(I: 170 nM, V: 310 nM, II: 620 nM, IV: 5390 nM, III: 56200 nM)
